System: Strepto A 561
Experiment: M.I.C. in vitro, nutrient agar dilution
Assay type: cell-based
Conditions: 18 h; Table 2; Strepto A 561 (Gram positive)
Measured MIC, listed per entry.
Give just the number in µg/mL; leave the unit off.

> print(dat)
                                   compound  readouttype  quantityunit  observedvalue
1  CCn1cc(C(=O)O)c(=O)c2cc(Cl)c(N3CCN(CCO)CC3)cc21 [Example 4]          MIC         µg/mL            6.2
2  CCn1cc(C(=O)O)c(=O)c2ccc(N3CCN(C)CC3)cc21 [Example T1, reference compound]          MIC         µg/mL             50
3  CCn1cc(C(=O)O)c(=O)c2cc(Cl)c(N3CCNCC3)cc21 [Example 3]          MIC         µg/mL            6.2
4  CCn1cc(C(=O)O)c(=O)c2cc(Cl)c(N3CCN(Cc4ccccc4)CC3)cc21 [Example 5]          MIC         µg/mL            6.2

Shift focus to the following entry.
Tested system Strepto A 561; MIC recorded for CCn1cc(C(=O)O)c(=O)c2cc(Cl)c(N3CCOCC3)cc21 [Example 7] was 100
